assay-system: UniProt P35557
Sequence (P35557 1-465): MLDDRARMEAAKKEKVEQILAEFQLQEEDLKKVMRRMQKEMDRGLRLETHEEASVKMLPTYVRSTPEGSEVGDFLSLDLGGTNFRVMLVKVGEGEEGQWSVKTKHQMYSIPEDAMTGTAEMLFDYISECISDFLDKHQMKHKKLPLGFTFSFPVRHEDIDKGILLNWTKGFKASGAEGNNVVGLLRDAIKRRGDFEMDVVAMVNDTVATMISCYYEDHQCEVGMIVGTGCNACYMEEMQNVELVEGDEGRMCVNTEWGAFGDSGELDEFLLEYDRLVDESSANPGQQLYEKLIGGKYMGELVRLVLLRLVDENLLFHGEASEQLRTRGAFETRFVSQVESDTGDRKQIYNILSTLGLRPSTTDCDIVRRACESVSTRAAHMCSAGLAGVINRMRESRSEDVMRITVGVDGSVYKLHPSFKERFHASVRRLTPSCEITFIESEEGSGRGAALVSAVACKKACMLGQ
assay-explanation: In-vitro glucokinase (GK) enzyme activation assay (coupled with glucose-6-phosphate dehydrogenase, absorbance at 340)
Type: biochemical
run-parameters: compound 1 uM; glucose 2.5 mM, ATP 1 mM
value-type: % of GK activity wrt DMSO (%)

As a guide, the following entries are already answered.
- COCC(C)Oc1cc(Oc2ccc(-c3nnc(C4CCCC4)o3)cc2)cc(C(=O)Nc2nccs2)c1 (stereo not shown): 433.6
- Cc1nnc(-c2ccc(Oc3cc(OCC4CCOCC4)cc(C(=O)Nc4nccs4)c3)cc2)o1: 196.4

A. Cc1nnc(-c2ccc(Oc3cc(OCC45CC6CC(CC(C6)C4)C5)cc(C(=O)Nc4nccs4)c3)cc2)o1
B. COCC(C)Oc1cc(Oc2ccc(-c3nnc(C)o3)cc2)cc(C(=O)Nc2nc(CC(=O)O)cs2)c1 (stereo not shown)
Form field 'greater % of GK activity wrt DMSO' accepts A or B ; which applies? Reply briefly: the label of your chosen item. B

* * *

assay-system: glucokinase (GK) enzyme (Homo sapiens, UniProt P35557)
assay-explanation: In-vitro glucokinase (GK) enzyme activation assay (coupled with glucose-6-phosphate dehydrogenase, absorbance at 340)
Type: biochemical
run-parameters: compound 0.1 uM; glucose 2.5 mM, ATP 1 mM
value-type: % of GK activity wrt DMSO (%)

As a guide, the following entries are already answered.
- Cc1nnc(-c2ccc(Oc3cc(OCC45CC6CC(CC(C6)C4)C5)cc(C(=O)Nc4nccs4)c3)cc2)o1: 121.83
- COCC(C)Oc1cc(Oc2ccc(-c3nnc(C4CCCC4)o3)cc2)cc(C(=O)Nc2nccs2)c1 (stereo not shown): 252.3

P. Cc1nnc(-c2ccc(Oc3cc(OCC4CCOCC4)cc(C(=O)Nc4nccs4)c3)cc2)o1
Q. COCC(C)Oc1cc(Oc2ccc(-c3nnc(C)o3)cc2)cc(C(=O)Nc2nc(CC(=O)O)cs2)c1 (stereo not shown)
Which value of % of GK activity wrt DMSO is smaller, the one for P or the one for Q ? Reply briefly: the label of your chosen item. P
(P: 128.2%, Q: 239.5%)

* * *

assay-system: glucokinase (GK) enzyme (Homo sapiens, UniProt P35557)
Sequence (P35557 1-465): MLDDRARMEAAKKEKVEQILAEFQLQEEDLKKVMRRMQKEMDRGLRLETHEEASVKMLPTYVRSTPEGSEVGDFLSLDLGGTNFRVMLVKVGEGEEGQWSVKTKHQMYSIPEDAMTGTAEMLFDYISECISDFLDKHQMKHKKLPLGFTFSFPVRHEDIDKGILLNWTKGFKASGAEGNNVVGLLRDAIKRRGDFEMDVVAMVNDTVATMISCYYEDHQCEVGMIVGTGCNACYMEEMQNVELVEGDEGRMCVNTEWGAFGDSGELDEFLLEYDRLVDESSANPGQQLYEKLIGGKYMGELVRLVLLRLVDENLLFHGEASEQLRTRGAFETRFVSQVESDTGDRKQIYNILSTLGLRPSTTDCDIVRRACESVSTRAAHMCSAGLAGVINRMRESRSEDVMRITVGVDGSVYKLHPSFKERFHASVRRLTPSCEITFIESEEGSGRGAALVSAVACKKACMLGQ
assay-explanation: In-vitro glucokinase (GK) enzyme activation assay (coupled with glucose-6-phosphate dehydrogenase, absorbance at 340)
Assay type: biochemical
run-parameters: compound 5 uM; glucose 2.5 mM, ATP 1 mM; read-out: % of GK activity wrt DMSO
value-type: activity at 5 µM (%)

- COCC(C)Oc1cc(Oc2ccc(-c3nnc(C)o3)cc2)cc(C(=O)Nc2nc(C(=O)O)cs2)c1 (stereo not shown) [Example 2.17]: 306
- Cc1nnc(-c2ccc(Oc3cc(OCC4CCCCC4)cc(C(=O)Nc4nccs4)c3)cc2)o1 [Example 2.2]: 193
- COC[C@@H](C)Oc1cc(Oc2ccc(-c3nnc(C)o3)cc2)cc(C(=O)Nc2nccs2)c1 [Example 2.15]: 239
- COCC(C)Oc1cc(Oc2ccc(-c3nnc(C)o3)cc2)cc(C(=O)Nc2ncc(C(=O)O)s2)c1 (stereo not shown) [Example 2.18]: 251

1. COCC(C)Oc1cc(Oc2ccc(-c3nnc(C)o3)cc2)cc(C(=O)Nc2ncc(C)s2)c1 (stereo not shown) [Example 2.9]
2. Cc1csc(NC(=O)c2cc(OCC3CCCCC3)cc(Oc3ccc(-c4nnc(C)o4)cc3)c2)n1 [Example 2.3]
3. COC[C@H](C)Oc1cc(Oc2ccc(-c3nnc(C)o3)cc2)cc(C(=O)Nc2nc(C)cs2)c1 [Example 2.20]
Returns the items ordered by activity at 5 µM, from maximum to minimum. Submit the labels in the order that the ranking request calls for. 3, 1, 2
